studySystem: cAMP-dependent protein kinase catalytic subunit gamma (Homo sapiens)
Sequence (P22612 whole entry): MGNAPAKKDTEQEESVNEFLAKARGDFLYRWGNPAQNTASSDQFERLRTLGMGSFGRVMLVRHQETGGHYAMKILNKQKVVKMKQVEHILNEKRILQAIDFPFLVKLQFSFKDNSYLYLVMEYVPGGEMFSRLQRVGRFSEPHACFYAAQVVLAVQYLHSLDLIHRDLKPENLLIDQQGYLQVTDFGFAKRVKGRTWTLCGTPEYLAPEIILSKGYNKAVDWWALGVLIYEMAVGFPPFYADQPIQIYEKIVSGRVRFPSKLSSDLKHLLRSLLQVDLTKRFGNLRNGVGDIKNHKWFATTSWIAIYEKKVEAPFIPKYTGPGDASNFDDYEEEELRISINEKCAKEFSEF
protocol: PKAgamma(PRCGLGY1) Takeda global kinase panel
outcomeMeasure: IC50 (nM)
Answers are plain numbers, in nM.

Can you look up IC50 on cAMP-dependent protein kinase catalytic subunit gamma (Homo sapiens) for CN1C(=O)[C@@H](N2CCc3c(nn(Cc4ccccc4)c3Br)C2=O)COc2ccccc21 ?
1000

* * *

studySystem: Microtubule-associated serine/threonine-protein kinase 3 (Homo sapiens)
Sequence (O60307 whole entry): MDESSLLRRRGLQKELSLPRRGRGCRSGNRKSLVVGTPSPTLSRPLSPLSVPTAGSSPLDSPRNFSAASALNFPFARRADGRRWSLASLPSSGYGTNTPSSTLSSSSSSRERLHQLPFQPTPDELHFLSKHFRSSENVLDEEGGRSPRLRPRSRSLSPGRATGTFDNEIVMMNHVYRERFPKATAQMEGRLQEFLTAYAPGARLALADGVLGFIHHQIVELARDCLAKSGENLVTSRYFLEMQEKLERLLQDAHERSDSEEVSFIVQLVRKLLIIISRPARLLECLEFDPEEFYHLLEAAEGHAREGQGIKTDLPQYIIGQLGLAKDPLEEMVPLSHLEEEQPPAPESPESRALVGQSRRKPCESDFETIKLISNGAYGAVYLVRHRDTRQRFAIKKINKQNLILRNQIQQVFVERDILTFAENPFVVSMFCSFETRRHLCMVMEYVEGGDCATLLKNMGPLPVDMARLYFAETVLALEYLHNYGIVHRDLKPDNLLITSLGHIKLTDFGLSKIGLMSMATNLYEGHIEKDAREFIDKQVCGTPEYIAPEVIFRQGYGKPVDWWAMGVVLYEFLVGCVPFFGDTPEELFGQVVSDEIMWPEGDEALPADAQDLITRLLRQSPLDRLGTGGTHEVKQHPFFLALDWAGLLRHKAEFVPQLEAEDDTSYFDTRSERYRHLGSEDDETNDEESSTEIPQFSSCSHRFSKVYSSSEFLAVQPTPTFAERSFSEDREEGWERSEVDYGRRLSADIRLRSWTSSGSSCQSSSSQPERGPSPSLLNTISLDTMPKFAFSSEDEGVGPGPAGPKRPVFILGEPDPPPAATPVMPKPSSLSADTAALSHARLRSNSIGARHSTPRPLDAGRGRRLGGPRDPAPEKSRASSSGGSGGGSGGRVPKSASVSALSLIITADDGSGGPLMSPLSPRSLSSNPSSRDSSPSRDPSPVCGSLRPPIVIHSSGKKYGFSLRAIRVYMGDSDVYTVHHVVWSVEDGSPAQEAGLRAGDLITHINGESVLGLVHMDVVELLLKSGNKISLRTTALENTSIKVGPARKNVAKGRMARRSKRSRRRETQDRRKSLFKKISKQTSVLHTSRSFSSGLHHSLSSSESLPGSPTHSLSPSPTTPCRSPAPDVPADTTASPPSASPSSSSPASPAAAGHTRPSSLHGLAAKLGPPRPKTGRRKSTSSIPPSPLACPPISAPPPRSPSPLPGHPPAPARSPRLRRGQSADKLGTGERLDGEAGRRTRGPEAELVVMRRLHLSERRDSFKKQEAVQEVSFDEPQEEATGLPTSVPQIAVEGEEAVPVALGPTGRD
outcomeMeasure: IC50 (µM)
Answers are plain numbers, in µM.

Report IC50 for CN1C(=O)[C@@H](N2CCc3c(nn(Cc4ccccc4)c3Br)C2=O)COc2ccccc21 please.
1

* * *

studySystem: Serine/threonine-protein kinase Nek1 (Homo sapiens, UniProt Q96PY6)
Sequence (Q96PY6 whole entry): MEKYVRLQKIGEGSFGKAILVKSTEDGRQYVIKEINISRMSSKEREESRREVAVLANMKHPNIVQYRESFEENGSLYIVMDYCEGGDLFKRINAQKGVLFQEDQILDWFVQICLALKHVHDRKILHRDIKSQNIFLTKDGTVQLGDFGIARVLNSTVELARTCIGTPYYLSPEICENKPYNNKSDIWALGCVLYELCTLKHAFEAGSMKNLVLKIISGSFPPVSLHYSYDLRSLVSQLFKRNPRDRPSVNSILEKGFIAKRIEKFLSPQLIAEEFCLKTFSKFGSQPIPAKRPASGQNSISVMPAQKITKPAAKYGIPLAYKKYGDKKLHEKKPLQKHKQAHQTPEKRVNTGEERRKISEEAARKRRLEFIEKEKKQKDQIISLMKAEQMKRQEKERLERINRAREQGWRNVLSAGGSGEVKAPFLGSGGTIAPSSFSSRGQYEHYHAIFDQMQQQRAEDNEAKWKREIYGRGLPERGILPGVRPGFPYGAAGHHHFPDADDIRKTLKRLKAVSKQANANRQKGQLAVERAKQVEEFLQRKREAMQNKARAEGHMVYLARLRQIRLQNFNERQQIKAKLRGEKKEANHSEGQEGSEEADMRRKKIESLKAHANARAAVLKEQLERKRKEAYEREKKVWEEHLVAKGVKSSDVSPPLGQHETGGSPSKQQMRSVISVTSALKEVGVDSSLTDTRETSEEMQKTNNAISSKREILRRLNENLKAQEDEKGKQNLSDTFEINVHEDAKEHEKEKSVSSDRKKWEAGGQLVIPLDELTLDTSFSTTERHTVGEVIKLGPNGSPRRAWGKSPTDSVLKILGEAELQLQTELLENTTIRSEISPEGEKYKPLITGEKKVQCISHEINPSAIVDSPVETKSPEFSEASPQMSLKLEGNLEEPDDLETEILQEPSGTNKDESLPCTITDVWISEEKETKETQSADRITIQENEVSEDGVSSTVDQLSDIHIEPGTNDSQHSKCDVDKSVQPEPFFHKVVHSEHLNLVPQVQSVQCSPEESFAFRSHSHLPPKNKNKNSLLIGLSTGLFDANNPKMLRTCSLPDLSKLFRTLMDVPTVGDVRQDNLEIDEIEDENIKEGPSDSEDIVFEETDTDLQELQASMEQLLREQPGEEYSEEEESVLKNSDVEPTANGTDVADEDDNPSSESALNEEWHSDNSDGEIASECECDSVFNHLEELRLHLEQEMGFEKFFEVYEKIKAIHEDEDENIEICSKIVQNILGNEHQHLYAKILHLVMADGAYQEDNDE
outcomeMeasure: IC50 (nM)
Give bare numbers, in nM.

Can you look up IC50 on Serine/threonine-protein kinase Nek1 (Homo sapiens, UniProt Q96PY6) for CN1C(=O)[C@@H](N2CCc3c(nn(Cc4ccccc4)c3Br)C2=O)COc2ccccc21 [TP-030-2] ?
1000

Values were extracted from ChEMBL document CHEMBL4507326.
